Measured values drawn from patent US20260216170A1 for this set.

# system: Human BCL-XL protein (N-terminal HiBiT tagged BCL-XL expressed in HT1080 cells) (Homo sapiens)
# Construct: expressed in transfected cells; host or cells: HT-1080 (ATCC CCL-121), stably transduced with lentivirus pLV-UBC-N-HiBiT-BCL-XL-PGK-puro and selected with puromycin
# Sequence (Q07817 whole entry): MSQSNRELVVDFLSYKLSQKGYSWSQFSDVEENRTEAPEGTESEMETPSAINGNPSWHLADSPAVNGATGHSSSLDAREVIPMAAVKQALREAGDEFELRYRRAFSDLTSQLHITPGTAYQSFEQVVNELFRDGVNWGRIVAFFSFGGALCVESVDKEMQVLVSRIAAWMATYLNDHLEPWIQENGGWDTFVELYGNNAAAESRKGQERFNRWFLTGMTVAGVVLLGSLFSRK
# protocol_description: HiBiT Based Degradation Assay
# Assay type: cell-based
# run_parameters: bottom of BCL-XL degradation curve (remaining HiBiT-BCL-XL signal vs DMSO control), HT1080 cells, 24 hours incubation
assay_endpoint: Ymin (24 h)

INSERT INTO results (molecule, assay_endpoint, experimental_result) VALUES
  ('Cc1c(OCCC[C@H]2[C@@H]3C[C@H]2CN(CC(=O)Nc2ccc4c(C5CCC(=O)NC5=O)nn(C)c4c2)C3)cccc1-c1ccc(N2CCc3cccc(C(=O)Nc4nc5ccccc5s4)c3C2)nc1C(=O)O (stereo partly drawn) [Compound 176a]', 'Ymin (24 h)', 'C (50% ≤ Ymin < 70%)'),
  ('Cc1cc(OC[C@@H]2C[C@@H]2C2CCN(CC(=O)Nc3ccc4c(C5CCC(=O)NC5=O)nn(C)c4c3)CC2)ccc1-c1ccc(N2CCc3cccc(C(=O)Nc4nc5ccccc5s4)c3C2)nc1C(=O)O (single isomer, unassigned) [Compound 1003d]', 'Ymin (24 h)', 'A (Ymin < 30%)'),
  ('COc1c(NC(=O)CN2CCC3(CC2)CC(COc2cccc(-c4ccc(N5CCc6ccnc(C(=O)Nc7nc8ccccc8s7)c6C5)nc4C(=O)O)c2C(F)(F)F)C3)ccc2c(C3CCC(=O)NC3=O)nn(C)c12 (stereo not drawn)', 'Ymin (24 h)', 'B (30% ≤ Ymin < 50%)'),
  ('Cc1c(OCCCCC2CCN(Cc3nc4cc(C5CCC(=O)NC5=O)ccc4n3C)CC2)cccc1-c1ccc(N2CCc3cccc(C(=O)Nc4nc5ccccc5s4)c3C2)nc1C(=O)O (stereo not drawn)', 'Ymin (24 h)', 'C (50% ≤ Ymin < 70%)'),
  ('Cc1c(OC2CC3(CCN(CC(=O)Nc4ccc5c(C6CCC(=O)NC6=O)nn(C)c5n4)CC3)C2)cccc1-c1ccc(N2CCc3ccnc(C(=O)Nc4nc5ccccc5s4)c3C2)nc1C(=O)O (stereo not drawn)', 'Ymin (24 h)', 'B (30% ≤ Ymin < 50%)'),
  ('Cc1cc(O[C@H](C)CCC2CCN(CC(=O)Nc3ccc4c(C5CCC(=O)NC5=O)nn(C)c4n3)CC2)ccc1-c1ccc(N2CCc3cccc(C(=O)Nc4nc5ccccc5s4)c3C2)nc1C(=O)O (single isomer, unassigned) [Compound 225b]', 'Ymin (24 h)', 'B (30% ≤ Ymin < 50%)'),
  ('Cc1c(OCC[C@@H]2C[C@H]3CC[C@@H](C2)N3CC(=O)Nc2ccc3c(C4CCC(=O)NC4=O)nn(C)c3c2)cccc1-c1ccc(N2CCc3cccc(C(=O)Nc4nc5ccccc5s4)c3C2)nc1C(=O)O (stereo partly drawn) [Compound 174a]', 'Ymin (24 h)', 'A (Ymin < 30%)'),
  ('Cn1nc(C2CCC(=O)NC2=O)c2ccc(NC(=O)CN3CCC(CCCOc4ccc(-c5ccc(N6CCc7cccc(C(=O)Nc8nc9ccccc9s8)c7C6)nc5C(=O)O)c(C(F)(F)F)c4)CC3)cc21 (stereo not drawn)', 'Ymin (24 h)', 'B (30% ≤ Ymin < 50%)'),
  ('Cc1cc(OCCCC2CCN(CCCc3ccc4c(C5CCC(=O)NC5=O)nn(C)c4c3)CC2)ccc1-c1ccc(N2CCc3cccc(C(=O)Nc4nc5ccccc5s4)c3C2)nc1C(=O)O (stereo not drawn)', 'Ymin (24 h)', 'A (Ymin < 30%)');
